Numbers sourced from PubChem BioAssay (EPA / NIEHS).

Molecular target: Estrogen receptor (Homo sapiens) + Estrogen receptor beta (Homo sapiens) (UniProt P03372+Q92731)
Sequence (P03372 whole entry, looked up, the tested form may be a part): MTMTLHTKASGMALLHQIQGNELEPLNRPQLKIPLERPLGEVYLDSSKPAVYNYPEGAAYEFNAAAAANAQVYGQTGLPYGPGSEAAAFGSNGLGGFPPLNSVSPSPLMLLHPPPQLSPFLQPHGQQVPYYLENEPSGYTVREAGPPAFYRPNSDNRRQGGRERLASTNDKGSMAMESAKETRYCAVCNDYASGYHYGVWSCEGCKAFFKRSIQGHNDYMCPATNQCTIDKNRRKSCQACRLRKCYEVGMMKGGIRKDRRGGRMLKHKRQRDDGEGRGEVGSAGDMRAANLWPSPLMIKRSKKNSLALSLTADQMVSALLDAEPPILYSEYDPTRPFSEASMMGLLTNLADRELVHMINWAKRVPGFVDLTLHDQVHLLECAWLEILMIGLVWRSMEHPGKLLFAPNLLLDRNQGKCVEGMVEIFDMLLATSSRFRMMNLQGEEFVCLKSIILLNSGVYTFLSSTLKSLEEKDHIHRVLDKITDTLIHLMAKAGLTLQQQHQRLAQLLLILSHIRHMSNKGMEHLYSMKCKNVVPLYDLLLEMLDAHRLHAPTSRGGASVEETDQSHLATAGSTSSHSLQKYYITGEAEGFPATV
Sequence (Q92731 whole entry, looked up, the tested form may be a part): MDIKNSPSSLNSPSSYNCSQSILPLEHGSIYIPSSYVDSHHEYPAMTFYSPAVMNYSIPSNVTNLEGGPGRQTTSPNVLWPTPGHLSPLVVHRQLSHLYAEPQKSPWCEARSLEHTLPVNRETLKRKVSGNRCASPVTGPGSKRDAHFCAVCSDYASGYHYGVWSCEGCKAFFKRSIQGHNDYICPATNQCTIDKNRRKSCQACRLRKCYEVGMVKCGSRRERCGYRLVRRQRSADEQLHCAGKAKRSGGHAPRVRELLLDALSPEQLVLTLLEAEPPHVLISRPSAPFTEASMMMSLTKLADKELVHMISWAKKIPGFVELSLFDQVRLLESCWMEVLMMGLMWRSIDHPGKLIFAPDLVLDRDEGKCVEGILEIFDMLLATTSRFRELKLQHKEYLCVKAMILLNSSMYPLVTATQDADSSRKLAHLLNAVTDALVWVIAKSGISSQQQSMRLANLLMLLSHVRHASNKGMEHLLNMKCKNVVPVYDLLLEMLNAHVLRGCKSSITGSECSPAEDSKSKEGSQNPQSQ
Assay: OT_ER_ERaERb_1440: Odyssey Thera (OT) 24-hour HEK293T Protein-Complementation Assay for Estrogen Receptor-alpha/-beta Homodimer (AID 2283356);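 note: heteromer of ER alpha and ER beta binding domains; hits raise reporter fluorescence and both agonists and antagonists give an increase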
Records with an inconclusive call do not appear. The source made the active and inactive calls. Rule for the calls: active = hit-call score of the fitted dose curve at least 0.9, where 1 is the maximum; inconclusive = response in the unintended direction; inactive = score below 0.9.

{"columns": ["COMPOUND_STRUCTURE_STRING", "outcome"],
 "data": [
  ["c1ccc2cc3ccccc3cc2c1", "inactive"],
  ["CCCCN1C(=O)[C@@H]([C@H](O)C2CCCCC2)NC(=O)C12CCN(Cc1ccc(Oc3ccc(C(=O)O)cc3)cc1)CC2", "inactive"],
  ["Cc1cccc(O)c1C", "inactive"]
]}
